Catalogue of pIC50 values
# system: T1, alpha subunit of the human FcεRI receptor expressed on Chinese hamster ovary cells (human, UniProt P12319 26-257)
# T1 construct: whole, on cells; also called CHO FcεRI+ cells
# T1 sequence (looked up): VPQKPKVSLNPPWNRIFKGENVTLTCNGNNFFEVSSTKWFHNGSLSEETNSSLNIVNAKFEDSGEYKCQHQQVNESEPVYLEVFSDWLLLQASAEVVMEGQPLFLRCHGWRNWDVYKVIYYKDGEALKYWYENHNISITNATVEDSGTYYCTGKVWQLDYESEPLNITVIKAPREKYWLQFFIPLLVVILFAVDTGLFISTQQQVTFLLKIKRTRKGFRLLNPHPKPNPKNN
# protocol_summary: inhibition of 125I-IgE binding to CHO cells expressing human FcεRI alpha subunit
pIC50: −log10 of the molar value. Bridges are numbered along the chain shown (N, C = ends). Where no end group is shown, it is not given here. [ ]: non-standard residue; d: D form. Sar = CNCC(=O)O

binder	pIC50
NLPRCTEAPWGWVCM (disulfide 5-14 (inferred), synthetic) [IGE079]	3.34
Ac-NLPRCTEG[Sar]WGWVCM (disulfide 5-14 (inferred), synthetic) [IGE097]	4.08
LPRCTEGPWGWVCM-NH2 (disulfide 4-13 (inferred), synthetic) [IGE068]	5.48
NLPRCTEGPWGWVC-NH2 (disulfide 5-14 (inferred), synthetic) [IGE091]	4.89
Ac-NLPRCTEGPWGWVCM (disulfide 5-14 (inferred), synthetic) [IGE063]	5.74
Ac-EIQECTEGPWGWVCM-NH2 (disulfide 5-14 (inferred), synthetic) [IGE090]	5.12
